Tested on: HT 29
Method summary: Growth inhibition test (MTT) for cytotoxic properties
Format: cell-based, human
Particulars: Table 1a, glycoconjugates of batracyline
Structures can show the parent of a compound that is named as a salt.
Friendly reminder: IC50 below 40 µM is true, at or above is false.

Use the examples below as a reference point.
In: Determine if O=C(O)CO[C@H]1[C@@H](O)[C@@H](CO)O[C@@H](Oc2ccc(NC(=S)NCCCC[C@H](NC(=S)Nc3ccc(O[C@@H]4O[C@H](CO)[C@H](O)[C@H](OCC(=O)O)[C@H]4O)cc3)C(=O)Nc3ccc4nc5n(c(=O)c4c3)Cc3ccccc3-5)cc2)[C@@H]1O [Example 6.28, di-sodium salt] shows IC50 strictly lower than 40 µM.
Out: true

In: Determine if CC(NC(=O)C(CCCCNC(=S)Nc1ccc(OC2OC(CO)C(O)C(OCC(=O)[O-])C2O)cc1)NC(=S)Nc1ccc(OC2OC(CO)C(O)C(OCC(=O)[O-])C2O)cc1)C(=O)Nc1ccc2nc3n(c(=O)c2c1)Cc1ccccc1-3.[Na+].[Na+] (stereo not drawn) [Example 6.81, di-sodium salt] shows IC50 strictly lower than 40 µM.
Out: true

More entries:
In: Determine if COC1C(C)OC(Oc2ccc(NC(=S)NCCCCC(NC(=S)Nc3ccc(OC4OC(C)C(OC)C(O)C4O)cc3)C(=O)NC(C)C(=O)Nc3ccc4nc5n(c(=O)c4c3)Cc3ccccc3-5)cc2)C(O)C1O (stereo not drawn) [Example 6.3] shows IC50 strictly lower than 40 µM.
Out: false

In: Determine if CC(NC(=O)C(CCCCNC(=S)Nc1ccc(OC2OC(C)C(O)C(OCC(=O)[O-])C2O)cc1)NC(=S)Nc1ccc(OC2OC(C)C(O)C(OCC(=O)[O-])C2O)cc1)C(=O)Nc1ccc2nc3n(c(=O)c2c1)Cc1ccccc1-3.[Na+].[Na+] (stereo not drawn) [Example 6.12, di-sodium salt] shows IC50 strictly lower than 40 µM.
Out: false

In: Determine if COC1C(O)C(C)OC(Oc2ccc(NC(=S)NCCCCC(NC(=S)Nc3ccc(OC4OC(C)C(O)C(OCC(=O)O)C4O)cc3)C(=O)NC(C)C(=O)Nc3ccc4nc5n(c(=O)c4c3)Cc3ccccc3-5)cc2)C1O (stereo not drawn) [Example 5.1] shows IC50 strictly lower than 40 µM.
Out: false

In: Determine if NC(=O)COC1C(O)C(CO)OC(Oc2ccc(NC(=S)NCCCCC(NC(=S)Nc3ccc(OC4OC(CO)C(O)C(OCC(N)=O)C4O)cc3)C(=O)Nc3ccc4nc5n(c(=O)c4c3)Cc3ccccc3-5)cc2)C1O (stereo not drawn) [Example 6.29] shows IC50 strictly lower than 40 µM.
Out: false
